Origin of values: PubChem BioAssay AID1259407

# Tested on: CCRIS mutagenicity, Ames/micronucleus/aberration tests
# Test: CCRIS mutagenicity studies
# Measurement context: Test System: AMES SALMONELLA TYPHIMURIUM; Strain/Indicator: TA100; Metabolic Activation: HAMSTER, LIVER, S-9, AROCLOR 1254 (10%); Method: PREINCUBATION
Calls of active or inactive are those of the source. How the calls were made is not given here.
The reply should be one of these categories: active, inactive

Solved cases below.
> print(dat)
                                   compound                             system.tested  class.assignment
1                     S=c1[nH]c2ccccc2[nH]1  CCRIS mutagenicity, Ames/micronucleus/aberration tests          inactive
2                       CCCCOC(=O)c1ccccc1N  CCRIS mutagenicity, Ames/micronucleus/aberration tests          inactive
3  CCOC(=O)C1OC1c1ccccc1 (stereo not drawn)  CCRIS mutagenicity, Ames/micronucleus/aberration tests          inactive

Prompt: Look up the recorded call for `O=C(O)c1cccc(Cl)c1` in this test.
Response: inactive

Prompt: Look up the recorded call for `NC(=O)c1ccccc1C(N)=O` in this test.
Response: inactive

Prompt: Look up the recorded call for `O=P(Oc1ccccc1)(Oc1ccccc1)Oc1ccccc1` in this test.
Response: inactive

Prompt: Look up the recorded call for `O=C1CSC(=S)N1` in this test.
Response: inactive

Prompt: Look up the recorded call for `c1ccc(N=NNc2ccccc2)cc1` in this test.
Response: active

###

# System: CCRIS mutagenicity, Ames/micronucleus/aberration tests
# Test: CCRIS mutagenicity studies
# Measurement context: Test System: AMES SALMONELLA TYPHIMURIUM; Strain/Indicator: TA98; Metabolic Activation: RAT LIVER S-9, AROCLOR 1254; Method: STANDARD PLATE
The source made the active and inactive calls. The rule behind the calls is not given here.
The reply should be one of these categories: active, inactive

Solved cases below.
> print(dat)
                                   compound  class.assignment
1   COC1=CC(=O)c2c(ncc3c2[nH]c2ccccc23)C1=O            active
2  Nc1cc(S(=O)(=O)O)cc2cc(S(=O)(=O)O)c(N=Nc3ccccc3)c(O)c12          inactive
3         COc1ccc2[nH]c3c(C)cc(N)c(C)c3c2c1            active
4  O=[N+]([O-])c1ccc2c(c1)-c1nc3ccccc3c3c1c-2nc1ccccc13            active
5  CCN(CCC#N)c1cc(NC(C)=O)c(-n2nc3c(Br)cc(N)c(Cl)c3n2)cc1OC            active
6  c1ccc2c(c1)-c1nc3ccccc3c3c1c-2nc1ccccc13          inactive

Prompt: Look up the recorded call for `Cc1ccc2[nH]c3c(C)cc([N+](=O)[O-])c(C)c3c2c1` in this test.
Response: active

Prompt: Look up the recorded call for `CCCCCCOCCOCCO` in this test.
Response: inactive

Prompt: Look up the recorded call for CCC1C(C)=NN=C(c2ccc(OC)c(OC)c2)c2cc(OC)c(OC)cc21 (configuration not stated) in this test.
Response: inactive

Prompt: Look up the recorded call for CC(=O)c1cc2c(cc1C)C(C)(C)C(C)C2C(C)C (configuration not stated) in this test.
Response: inactive

Prompt: Look up the recorded call for `C[Si]1(C)O[Si](C)(C)O[Si](C)(C)O[Si](C)(C)O1` in this test.
Response: inactive

Prompt: Look up the recorded call for `Cc1cc(N)c(C)c2c1[nH]c1ccc(O)cc12` in this test.
Response: active
